- Test system: Staphylococcus aureus
- Method notes: Antibacterial activity against methicillin-resistant Staphylococcus aureus ATCC43300 assessed as inhibition of bacterial growth incubated for 96 hrs by broth microdilution method
- Type: functional
Recorded endpoint: MIC (µg/mL)
Response body: numeric value in µg/mL, unit text excluded.

Query: Entry C=C[C@]1(C)C[C@@H](OC(=O)CSc2cccc(OCCCC)c2)[C@]2(C)[C@H](C)CC[C@]3(CCC(=O)[C@H]32)[C@@H](C)[C@@H]1O needs its MIC filled in; supply it.
Result: 2

Query: Hello, please tell me recorded MIC for this one: C=C[C@]1(C)C[C@@H](OC(=O)CSc2cccc(OCc3ccc(-c4ccccc4C#N)cc3)c2)[C@]2(C)[C@H](C)CC[C@]3(CCC(=O)[C@H]32)[C@@H](C)[C@@H]1O
Result: 2

Query: Give a short answer stating reported MIC for C=C[C@]1(C)C[C@@H](OC(=O)CSCCN(CC)CC)[C@]2(C)[C@H](C)CC[C@]3(CCC(=O)[C@H]32)[C@@H](C)[C@@H]1O [TIAMULIN] .
Result: 0.5

Query: # return recorded MIC for entry C=C[C@]1(C)C[C@@H](OC(=O)CSc2ccccc2OCc2ccc(C)cc2)[C@]2(C)[C@H](C)CC[C@]3(CCC(=O)[C@H]32)[C@@H](C)[C@@H]1O
Result: 32

Source of measurements: ChEMBL document CHEMBL6153030
